# system.name: FcγRIIIa (V176) (biotinylated, Acro Biosystems) (UniProt P08637 17-208, biotinylated)
# Sequence (P08637 17-208 F176V limits assumed): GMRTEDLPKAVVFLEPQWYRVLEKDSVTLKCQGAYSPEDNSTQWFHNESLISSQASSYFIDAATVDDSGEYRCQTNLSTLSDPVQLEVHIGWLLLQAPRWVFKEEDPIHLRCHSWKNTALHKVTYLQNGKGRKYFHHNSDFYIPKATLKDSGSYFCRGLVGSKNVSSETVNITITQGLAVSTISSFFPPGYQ
# experimental.details: BLI, biotinylated FcγR on SA sensor

binder	binding result
H135 (Fc fusion, not shown: hinge; copies: 2 + 2) chain (part 1 of 2): QVQLQESGGGSVQAGGSLKLTCAASGYIFNSCGMGWYRQSPGRERELVSRISGDGDTWHKESVKGRFTISQDNVKKTLYLQMNSLKPEDTAVYFCAVCYNLETYWGQGTQVTVSS chain (part 2 of 2): APEAEGAPSVFLFPPKPKDTLMISRTPEVTCVVVDVSHEDPEVKFNWYVDGVEVHNAKTKPREEQYNSTYRVVSVLTVLAQDWLNGKEYKCKVSNKALPSSIEKTISKAKGQPREPQVYTLPPSREEMTKNQVSLTCLVKGFYPSDIAVEWESNGQPENNYKTTPPVLDSDGSFFLYSKLTVDKSRWQQGNVFSCSVMHEALHNHYTQKSLSLSPG	no binding
D136 (Fc fusion, not shown: hinge; copies: 2 + 2) chain (part 1 of 2): EVQLVESGGGEVQPGGSLRLSCAASGSIFSINAMGWYRQAPGKQRELVAGFTGDTNTIYAESVKGRFTISRDNAKNTVYLQMSSLRAEDTAVYYCAADVQLFSRDYEFYWGQGTLVTVKP chain (part 2 of 2): APEAEGAPSVFLFPPKPKDTLMISRTPEVTCVVVDVSHEDPEVKFNWYVDGVEVHNAKTKPREEQYNSTYRVVSVLTVLAQDWLNGKEYKCKVSNKALPSSIEKTISKAKGQPREPQVYTLPPSREEMTKNQVSLTCLVKGFYPSDIAVEWESNGQPENNYKTTPPVLDSDGSFFLYSKLTVDKSRWQQGNVFSCSVMHEALHNHYTQKSLSLSPG	no binding
D134 (Fc fusion, not shown: hinge; copies: 2 + 2) chain (part 1 of 2): EVQLVESGGGEVQPGGSLRLSCAASGSIFSINAMGWYRQAPGKQRELVAGFTGDTNTIYAESVKGRFTISRDNAKNTVYLQMSSLRAEDTAVYYCAADVQLFSRDYEFYWGQGTLVTVKP chain (part 2 of 2): APEAEGAPSVFLFPPKPKDTLMISRTPEVTCVVVDVSHEDPEVKFNWYVDGVEVHNAKTKPREEQYNSTYRVVSVLTVLHQDWLNGKEYKCKVSNKALPSSIEKTISKAKGQPREPQVYTLPPSREEMTKNQVSLTCLVKGFYPSDIAVEWESNGQPENNYKTTPPVLDSDGSFFLYSKLTVDKSRWQQGNVFSCSVMHEALHNHYTQKSLSLSPG	no binding
H133 (Fc fusion, not shown: hinge; copies: 2 + 2) chain (part 1 of 2): QVQLQESGGGSVQAGGSLKLTCAASGYIFNSCGMGWYRQSPGRERELVSRISGDGDTWHKESVKGRFTISQDNVKKTLYLQMNSLKPEDTAVYFCAVCYNLETYWGQGTQVTVSS chain (part 2 of 2): APEAEGAPSVFLFPPKPKDTLMISRTPEVTCVVVDVSHEDPEVKFNWYVDGVEVHNAKTKPREEQYNSTYRVVSVLTVLHQDWLNGKEYKCKVSNKALPSSIEKTISKAKGQPREPQVYTLPPSREEMTKNQVSLTCLVKGFYPSDIAVEWESNGQPENNYKTTPPVLDSDGSFFLYSKLTVDKSRWQQGNVFSCSVMHEALHNHYTQKSLSLSPG	no binding
D138 (Fc fusion, not shown: hinge; copies: 2 + 2) chain (part 1 of 2): EVQLVESGGGEVQPGGSLRLSCAASGSIFSINAMGWYRQAPGKQRELVAGFTGDTNTIYAESVKGRFTISRDNAKNTVYLQMSSLRAEDTAVYYCAADVQLFSRDYEFYWGQGTLVTVKP chain (part 2 of 2): APEAEGAPSVFLFPPKPKDTLMISRTPEVTCVVVDVSHEDPEVKFNWYVDGVEVHNAKTKPREEQYNSTYRVVSVLTVLHQDWLNGKEYKCKVSNKALPSSIEKTISKAKGQPREPQVYTLPPSREEMTKNQVSLTCLVKGFYPSDIAVEWESNGQPENNYKTTPPVLDSDGSFFLYSKLTVDKSRWQQGNVFSCSVMHEALHNQYTQKSLSLSPG	no binding
